# tgt: Aldo-keto reductase family 1 member B1 (Homo sapiens, UniProt P15121)
# assay: Compound was tested in vitro for its inhibitory activity against human placental aldose reductase
pIC50: −log10 of the molar value.
measurement_kind: pIC50

Worked set:
- compound: "C[C@@H]1C[C@@](O)(CC(=O)O)c2cc(F)c(Br)cc2O1"
  tgt: "Aldo-keto reductase family 1 member B1 (Homo sapiens, UniProt P15121)"
  pIC50: 6.92
- compound: "C[C@@H]1C[C@@](O)(CC(=O)O)c2cc(F)c(Cl)cc2O1 (stereo in doubt; 23)"
  tgt: "Aldo-keto reductase family 1 member B1 (Homo sapiens, UniProt P15121)"
  pIC50: 7.92
- compound: "C[C@@H]1C[C@@](O)(CC(=O)O)c2cc(Cl)c(F)cc2O1"
  tgt: "Aldo-keto reductase family 1 member B1 (Homo sapiens, UniProt P15121)"
  pIC50: 6.39
- compound: "C[C@@H]1C[C@@](O)(CC(=O)O)c2cc(F)ccc2O1"
  tgt: "Aldo-keto reductase family 1 member B1 (Homo sapiens, UniProt P15121)"
  pIC50: 6.51

A = C[C@@H]1C[C@@](O)(CC(=O)O)c2cc(Cl)c(Br)cc2O1
B = C[C@@H]1C[C@@](O)(CC(=O)O)c2cc(F)c(F)cc2O1
C = C[C@@H]1C[C@@](O)(CC(=O)O)c2cc(Cl)c(Cl)cc2O1 (stereo in doubt; 18)
Q: hey, can you rank those compounds up there by pIC50? biggest number first please The labels, placed in the requested order, form the answer.
Result: A, C, B

The reported measurements were obtained from ChEMBL document CHEMBL1126072.
